# assay.system: Nucleoli Translocation, AR (gene 367) (UniProt P10275)
# Sequence (P10275 whole entry, looked up): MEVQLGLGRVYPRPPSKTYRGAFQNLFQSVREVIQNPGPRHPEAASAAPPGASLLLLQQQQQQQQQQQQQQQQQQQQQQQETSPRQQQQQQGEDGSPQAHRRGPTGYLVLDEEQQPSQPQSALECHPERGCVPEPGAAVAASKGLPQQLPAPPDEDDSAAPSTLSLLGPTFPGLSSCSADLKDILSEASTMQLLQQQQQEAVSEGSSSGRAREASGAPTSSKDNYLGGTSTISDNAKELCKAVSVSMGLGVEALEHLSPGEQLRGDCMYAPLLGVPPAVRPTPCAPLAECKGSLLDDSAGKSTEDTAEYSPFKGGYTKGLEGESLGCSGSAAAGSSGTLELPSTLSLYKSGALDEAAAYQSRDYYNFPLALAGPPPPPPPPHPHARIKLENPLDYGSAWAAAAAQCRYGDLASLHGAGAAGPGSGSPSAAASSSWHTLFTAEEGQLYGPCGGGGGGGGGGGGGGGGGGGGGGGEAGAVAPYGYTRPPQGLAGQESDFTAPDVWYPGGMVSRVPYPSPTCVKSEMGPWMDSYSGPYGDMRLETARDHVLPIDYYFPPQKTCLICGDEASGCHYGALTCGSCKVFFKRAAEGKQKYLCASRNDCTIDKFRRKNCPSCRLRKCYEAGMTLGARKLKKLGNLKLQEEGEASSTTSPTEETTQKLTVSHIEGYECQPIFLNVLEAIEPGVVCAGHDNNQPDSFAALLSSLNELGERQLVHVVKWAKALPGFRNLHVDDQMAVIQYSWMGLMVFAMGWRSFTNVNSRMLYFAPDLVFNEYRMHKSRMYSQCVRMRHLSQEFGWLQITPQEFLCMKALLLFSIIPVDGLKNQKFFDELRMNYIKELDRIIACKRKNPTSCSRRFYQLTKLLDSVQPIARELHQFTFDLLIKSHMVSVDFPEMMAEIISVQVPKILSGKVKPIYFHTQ
# experimental.protocol: UPITT_HCI_U2OS_AR_TIF2_Nucleoli_Antagonist: University of Pittsburgh U2OS Androgen Receptor-Transcriptional Intermediary Factor 2 (AR-TIF2) Antagonism High Content Imaging Assay for Nucleoli Translocation (AID 2283997)
Records with an inconclusive call do not appear. Calls of active or inactive are those of the source. How the source made its calls: active means hit-call score of the fitted dose curve at least 0.9, where 1 is the maximum; inconclusive means response in the unintended direction; inactive means score below 0.9.
Give one outcome, nothing more. List: Yes for active, No for inactive

What call does the record list for c1ccc2c(c1)ccc1ccccc12 ? Yes

Tell me the assay call for Nc1cccc2c(N)cccc12 please. Yes

Status in this test for CC(=O)CC(C)(C)O ? No

I would be grateful if you could indicate the recorded call for O=C(/C=C/c1ccc(O)cc1)CC(=O)/C=C/c1ccc(O)cc1 . Yes

In this assay, the call recorded for N#C[C@@H]1CC(F)(F)CN1C(=O)CNC1CC2CCC(C1)N2c1ncccn1 (some centres undefined) was what? No

State the result this test recorded for CCCOc1sc(C(=O)N2CCC(c3cc(CN)ccc3F)CC2)c(C)c1Br . No

# outcome recorded in this test, key = CC[C@H](c1ccc(O)cc1)[C@@H](CC)c1ccc(O)cc1 Yes

Could you please tell me the result logged for NC(=O)N1C(=O)C(C(=O)c2cc(Cl)cs2)c2cc(F)c(Cl)cc21 (centres undefined) in this assay? No

More entries:
Query: recorded result category for CCCCC[C@H](O)CC(=O)CCc1ccc(O)c(OC)c1 in this test No
